# Tested on: OVCAR-8 ovarian
# protocol.notes: NCI-60 one-dose screen, 48 h
# run.parameters: 10 µM unless noted
# Protocol: Growth inhibition of the OVCAR-8 human tumor cell line is measured as a screen for anti-cancer activity. Cells are grown in 96 well plates and exposed to the test compound for 48 hours. Compounds are tested at a single concentration, which is 10^-5 M for most compounds. The reported endpoint is percent growth (GI% or GIPRCNT), where numbers from 0 - 100% represent growth inhibition, and numbers from -100% - 0 represent cell death. For example, a value of 40 represents 60% growth inhibition. […]
This is part of a sample that, as a whole, favours compounds with a hit. Of some 83,000 tested, about 20% had one in any assay. The source made the active and inactive calls. How the source made its calls: active means growth percent below 10; inactive means the rest.
I would appreciate it if you answered using one of these outcomes: TRUE for active, FALSE for inactive

Query: Tell me the assay call for ClCC(Cl)C1CCC(Cl)C(Cl)C1 (centres undefined) please.
Reply: FALSE

Query: Now the same for `O=C(Nc1ccccc1)c1ccco1`
Reply: FALSE

Query: Same again, this time with `CC(C)c1ncc([N+](=O)[O-])n1C`
Reply: FALSE

Query: `Cc1cc(NC(=O)c2ccccc2)c(Cl)cc1N` ?
Reply: FALSE

Query: Try this compound too: `Cc1cc(=O)n(Nc2ccccc2)c(O)c1C#N`
Reply: FALSE

Query: Check `O=S(=O)(O)C(C(I)I)S(=O)(=O)O` too.
Reply: FALSE

Query: Another compound to check: COc1ccc(C2CC(c3ccccc3)=Nc3ccccc3S2)cc1 (centres undefined)
Reply: FALSE

Query: Would you mind doing OCC(O)COc1ccc(Cl)cc1Cl (centres undefined) as well?
Reply: FALSE

Query: How about this compound: `O=C(O)c1ccc([N+](=O)[O-])cc1S(=O)(=O)O`
Reply: FALSE

Query: One more compound: `Cn1c(=O)c2[nH]c(CC(=O)O)nc2n(C)c1=O`
Reply: FALSE

Query: Same question, `Cn1c(=O)c2[nH]c(CCCCC(=O)O)nc2n(C)c1=O` this time
Reply: FALSE

Query: Then `c1ccc2c(NCCCN3CCN(CCCNc4c5ccccc5nc5ccccc45)CC3)c3ccccc3nc2c1` ?
Reply: TRUE

Query: Now try COC1OC(CO)C(OC)C(O)C1O (centres undefined) .
Reply: FALSE

Query: Here is the next compound: `Clc1cccc(Cl)c1CSc1nc2ccccc2n2cccc12`
Reply: FALSE

Query: Now the compound `COc1cc(OC)c2cc(C(=O)c3ccc(C#N)cc3)c(=O)oc2c1`
Reply: FALSE

Query: Also, `O=C1C=CC(=O)C2=C1CCCC2` please.
Reply: FALSE

Query: Record: `Nc1cc2c(cc1Cl)C(=O)c1ccccc1C2=O`
Reply: FALSE

Query: Queued: `O=C(O)c1cc(I)ccc1O`
Reply: FALSE

Query: Here is the next compound: `Cc1ccc(C)c2c1CCC2=O`
Reply: FALSE
